Target: ITK kinase domain (Homo sapiens)
Construct: N-terminally His-tagged ITK kinase domain (amino acids 352-617); His (N); made in house
Sequence (Q08881 352-617): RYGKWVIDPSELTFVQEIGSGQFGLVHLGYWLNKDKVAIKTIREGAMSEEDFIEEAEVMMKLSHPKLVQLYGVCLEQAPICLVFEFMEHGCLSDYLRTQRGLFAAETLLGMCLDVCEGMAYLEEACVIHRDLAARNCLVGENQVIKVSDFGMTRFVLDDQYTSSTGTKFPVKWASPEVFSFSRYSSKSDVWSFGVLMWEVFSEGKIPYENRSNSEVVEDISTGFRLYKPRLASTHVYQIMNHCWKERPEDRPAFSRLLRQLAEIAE
Assay: In vitro kinase assay (HITHUNTER enzyme fragment complementation), ITK
Format: biochemical
Details: Table 1; ITK; read-out: IC50
Protocol: Compounds were screened using the HITHUNTER™ enzyme fragment complementation method (Discoverx). Briefly, a recombinantly produced, N-terminally His-tagged ITK kinase domain (amino acids 352-617) was incubated with various concentrations of individual compounds. ATP and substrate were added, and the kinase reaction was allowed to proceed for 2-16 hours. Commercially available detection reagents were added and allowed to react for 2-4 hours. The reaction was evaluated by luminescence. […]
pIC50: −log10 of the molar value.
property: pIC50

> print(dat)
                                   compound  quantitative.readout
1  CC(C)C1CCN(CCC(=O)c2ccc3ccccc3c2)C1 (stereo not drawn)                  8.16

I: CC(C)C1CCN(CCC(=O)c2ccc3ccccc3c2)CC1
II: COc1cc2c(cc1OC)CN(CCC(=O)c1ccc3ccccc3c1)CC2 [drawing 116]
Rank I against II by their pIC50 values and give the higher one. Respond with the label that goes with your answer.
II
(II: 9.07, I: 7.88)
